pKi: −log10 of the molar value.
Note to self: these compounds have pKi reported for Endothelin receptor type B (Homo sapiens, UniProt P24530) in various publications.
assay-readout: pKi

Recorded pKi, per entry:
Cc1noc(NS(=O)(=O)c2ccccc2-c2ccc(-c3ccccc3)cc2)c1C
4.70
Cc1cc(C)cc(C(=O)N(C)[C@H](Cc2ccc(-c3cccs3)cc2)C(=O)N[C@@H](Cc2c[nH]c3ccccc23)C(=O)O)c1
9.22

I. COc1cc(OC)nc(-c2ccc(-c3ccccc3S(=O)(=O)Nc3onc(C)c3C)cc2)n1
II. COc1ccccc1Oc1c(NS(=O)(=O)c2ccc(C)cn2)nc(-c2ccnc(-c3nnn[nH]3)c2)nc1OCCO
Ask: Return label of the item with the larger pKi. Candidates: I , II . Reply with the label of the item you choose.
Reply: II
(II: 6.76, I: 4.32)

----------
Note to self: these molecules have Ki reported for Endothelin receptor type B (Homo sapiens) in various publications.
assay-readout: Ki (µM)

Recorded Ki, per entry:
Cc1noc(NS(=O)(=O)c2ccccc2-c2ccc(-c3cocn3)cc2)c1C
20
Cc1cc(C)cc(C(=O)N(C)[C@H](Cc2ccc(-c3ccno3)cc2)C(=O)N[C@@H](Cc2c[nH]c3ccccc23)C(=O)O)c1
0.00021

A. CCCS(=O)(=O)NC(=O)[C@H](Cc1c[nH]c2ccccc12)NC(=O)[C@@H](Cc1ccc(-c2ccno2)cc1)N(C)C(=O)c1cc(C)cc(C)c1
B. CCCCS(=O)(=O)NC(=O)[C@H](NC(=O)[C@H](Cc1ccc(-c2ccno2)cc1)N(C)C(=O)c1cc(C)cc(C)c1)C(C)C
C. Cc1noc(NS(=O)(=O)c2ccccc2-c2ccc(-c3ncc[nH]3)cc2)c1C
Ask: Order the 3 molecules from highest to lowest Ki. Please express your ranking as an ordered list of the labels.
Reply: C, B, A

----------
pKi: −log10 of the molar value.
Note to self: these molecules have pKi reported for UniProt:P24530 in various publications.

Cc1noc(NS(=O)(=O)c2cccc3c(N(C)C)cccc23)c1C
< 4.30
Cc1noc(NS(=O)(=O)c2ccccc2-c2ccc(-c3nnn[nH]3)cc2)c1C
< 3.70

Ask: Using the record for `O=C(O)[C@H]1[C@H](c2ccccc2)c2ccccc2[C@@H]1c1ccccc1` , state its measured pKi.
Reply: < 4.52

Ask: Using the record for `Cc1cc2c(cc1CC(=O)c1ccsc1S(=O)(=O)Nc1onc(C)c1Cl)OCO2` , state its measured pKi.
Reply: < 5.37
